B1: ESRRG (parent)
chain: YSCPATNECEITKRRRKSCQACRF

- Variants of: B1
- ASSAY_REMARKS: protein stability index of a GFP-peptide fusion (GPS, HEK-293T) (PSI 1-6); higher = more stable;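 note: lentivirally expressed fusions sorted by FACS into six bins by GFP to DsRed ratio, PSI derived from sequencing read proportions per bin multiplied by bin number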
- PARTICULARS: c terminus: a fixed tail appended
Listed variants paired with reported protein stability index
REPORTED_PROPERTY: protein stability index

# MUTATION_ID, OBSERVED_VALUE
measured = [
    ("A5P", 3.12),
    ("E8I", 2.87),
    ("Y1D", 4.05),
    ("T12Y", 2.69),
    ("P4H", 2.91),
    ("R16Q", 3.66),
    ("F24P", 3.51),
    ("N7S", 3.01),
    ("E10L", 3.06),
    ("T6P", 2.2),
    ("C22P", 3.86),
    ("R14D", 3.76),
    ("Y1K", 3.92),
    ("S2M", 3.27),
    ("C3T", 3.99),
    ("R14A", 3.51),
    ("R16A", 3.48),
    ("C19G", 3.55),
    ("R23G", 3.79),
    ("A5I", 3.01),
    ("Y1C", 4.88),
    ("C22H", 3.5),
]

The measured values listed here are drawn from the supplement of paper PMC10567573.
